PROPERTY: melting point (°C)

Some solved cases for reference:
COc1ccc(-c2onc3ccc(-c4ccnn4-c4ccccc4F)cc23)cc1F : 168
Fc1ccc(-n2nccc2-c2ccc3noc(-c4ccc(C(F)(F)F)cc4)c3c2)c(F)c1 : 159
Fc1ccccc1-n1nccc1-c1ccc2noc(-c3ccc(C(F)(F)F)cc3)c2c1 : 156
COc1ccc(-c2onc3ccc(-c4ccnn4-c4ccc(C)cc4)cc23)cc1 : 165
Fc1ccc(-c2onc3ccc(-c4ccnn4-c4ccccc4Cl)cc23)cc1 : 161
Fc1cccc(-c2onc3ccc(-c4ccnn4-c4ccccc4F)cc23)c1 : 186
Fc1cccc(-c2onc3ccc(-c4ccnn4-c4ccc(Cl)cc4)cc23)c1 : 184

1. Fc1ccccc1-n1nccc1-c1ccc2noc(-c3ccc(Br)cc3)c2c1
2. COc1ccc(-c2onc3ccc(-c4ccnn4-c4ccc(OC)cc4)cc23)cc1
# input Lab log: flag the item ( 1 or 2 ) with the smaller melting point figure. Please reply using the label of the selected record.
# output 2
(2: 133 °C, 1: 202 °C)
